Experiment: chemical genetic growth profiling, strain panel (AID 1159580);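 note: tested at 20 µM; growth read once vehicle control cultures reached saturation at 30 °C; lower values mean less growth of the strain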
Conditions: S. cerevisiae deletion strains, growth OD, locus YHR094C, strain hxt1, stronger effect = lower value
Hit rate of the full screen: of about 5,500 compounds, about 2,000 (36%) were called active. Inconclusive results (about 18%) are left out. This is one part of the list.
Quick rule for you: normalized growth under 1 gets satisfied, anything else gets not satisfied.

## Task Does the reported normalized growth of the following compound sit strictly below 1? CCCn1c(=O)c2[nH]c(C3CCCC3)nc2n(CCC)c1=O
## Result satisfied

## Task Again, but for COc1ccc(CCC(=O)c2c(O)cc(O[C@@H]3O[C@H](CO)C(O)[C@H](O)C3O[C@@H]3O[C@@H](C)[C@H](O)[C@@H](O)[C@H]3O)cc2O)cc1O (stereo partly specified)
## Result satisfied

## Task Again, but for NCC[C@@H](O)C(=O)N[C@@H]1C[C@H](N)[C@@H](O[C@H]2O[C@H](CN)[C@@H](O)[C@H](O)[C@H]2O)[C@H](O)[C@H]1O[C@H]1O[C@H](CO)[C@@H](O)[C@H](N)C1O (stereo partly specified)
## Result not satisfied

## Task Again, but for O=c1cccc2n1CC1CC2CN2CCCC[C@@H]12 (stereo partly specified)
## Result satisfied

## Task Again, but for COc1ccc2c(c1)OCC(Cc1ccc(OC)c(O)c1)C2=O (stereo unspecified)
## Result satisfied
